B1: Twister Ribozyme (parent)
chain: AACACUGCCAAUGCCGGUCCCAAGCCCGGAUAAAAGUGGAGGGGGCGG

# Variants of: B1
# run.description: self-cleavage, relative activity (ratio to wild type); higher = more cleavage; co-transcriptional
observation.type: self-cleavage
I only need the number, thanks.

[in] # self-cleavage lookup, item AACAAUGUCAAUGCCGGUCCCAAGCCCGGAUAAAAGUGGAGGGGGCGG [C5A C8U]
[out] 0.335

[in] Need self-cleavage of AACAGUGCCAAUGCCGGUCCCAAGCCCGGAUAAAAGUCGAGGGGGCGG [C5G G38C] , thanks.
[out] 0.219

[in] Please look up its self-cleavage: AACACUGCCAAUGCCGGUCCCAAGCCCGGGUAAAAUUGGAGGGGGCGG [A30G G36U]
[out] 0.32

[in] Sample AAUACUGCCAAGGCCGGUCCCAAGCCCGGAUAAAAGUGGAGGGGGCGG [C3U U12G] — what was its self-cleavage?
[out] 0.391

[in] Any idea what self-cleavage was measured for AACACUGCUAAUGCCGGUCCCAAGCCCGGAUCAAAGUGGAGGGGGCGG [C9U A32C] ?
[out] 0.64

[in] # lookup: self-cleavage of AAGACUGCCGAUGCCGGUCCCAAGCCCGGAUAAAAGUGGAGGGGGCGG [C3G A10G]
[out] 0.872

[in] Query (variant): AACACUACCAAUGCCGGUCGCAAGCCCGGAUAAAAGUGGAGGGGGCGG [G7A C20G] ; field requested: self-cleavage
[out] 0.0749

[in] For the variant AACACUGCCAAUGCCGGUCCCAAGCCCAGAUAAAAGUGGAGGGGGGGG [G28A C46G] , what self-cleavage is on record?
[out] 0.864

[in] I'd like to know its self-cleavage. The variant in question is AACACUGCCAAUGCCGGUCCCAACCCCGGAUAAAAGUGGAGGAGGCGG [G24C G43A]
[out] 0.0738

[in] Sample AACACUGCCAAUGCCGCUCCCAAGCCCGGAUAAAAGUGCAGGGGGCGG [G17C G39C] — what was its self-cleavage?
[out] 0.0888

[in] Could you tell me which self-cleavage is on file for AACGCUGCCAAUGCCGGUCCAAAGCCCGGAUAAAAGUGGAGGGGGCGG [A4G C21A] ?
[out] 0.0832

[in] What value of self-cleavage has been recorded for this entry: AACACUGCCAAUGCCGGUCCCAGGCCCAGAUAAAAGUGGAGGGGGCGG [A23G G28A]
[out] 0.284

[in] Which measured self-cleavage value corresponds to AACACUACCAAUGCCGGUCCCAAGCCCGGAUAAAAGUGGAGCGGGCGG [G7A G42C] ?
[out] 0.258

[in] For AACACGGCCAAUGCCGGUCCCAAGCCCUGAUAAAAGUGGAGGGGGCGG [U6G G28U] , what is its reported self-cleavage?
[out] 0.0702

[in] Which measured self-cleavage value corresponds to AACACUGCCAAUGCCGGUCCCAAUCCCGGAUAAAAGUGGAGGUGGCGG [G24U G43U] ?
[out] 0.0757

[in] Report self-cleavage for AACACUGCCAAUGCCGGUCCCAAGCACGGAUAAAAGUGGAGCGGGCGG [C26A G42C] please.
[out] 0.131

[in] Which self-cleavage value belongs to AACACUGCCAAUGCCGGUCCCAAGCCCGGAUAAAAGCGGAGGGCGCGG [U37C G44C] ?
[out] 0.738

[in] Requested read-out: self-cleavage. Entry: UACACUGCCCAUGCCGGUCCCAAGCCCGGAUAAAAGUGGAGGGGGCGG [A1U A10C]
[out] 0.0358

[in] Return reported self-cleavage; argument: AACCCUGCCAAUACCGGUCCCAAGCCCGGAUAAAAGUGGAGGGGGCGG [A4C G13A]
[out] 0.0606

[in] Using the record for AACACUGCCAAUGCCGGUCCCAGGCCCGGAUAAAAGUGGAGGCGGCGG [A23G G43C] , report its self-cleavage.
[out] 0.125

[in] Returns the measured self-cleavage for the input variant. Input: AACACGGCCAAUGCCGGUCCCAAGCCCGGAUAAAAAUGGAGGGGGCGG [U6G G36A]
[out] 0.0942

[in] Consider the variant AGCACUGCCAAUGCCGGUCCCAAGCCCGGAUAAAAGUCGAGGGGGCGG [A2G G38C] and give its measured self-cleavage.
[out] 0.118

[in] Give the measured self-cleavage of AACACUGCCAAUGCCAGUCCCAAGACCGGAUAAAAGUGGAGGGGGCGG [G16A C25A] .
[out] 0.117

[in] Which self-cleavage value is on record for AACACCGCCGAUGCCGGUCCCAAGCCCGGAUAAAAGUGGAGGGGGCGG [U6C A10G] ?
[out] 0.809

[in] Give the measured self-cleavage of AACACUGCCAAUGCCGGUCCCAAGCCCGGAUCAAAGUGGAGGGGGGGG [A32C C46G] .
[out] 1.03

[in] # query: self-cleavage of entry AACACUGCCAAUGCCGUUCCCAAACCCGGAUAAAAGUGGAGGGGGCGG [G17U G24A]
[out] 0.101

[in] Data request, read-out self-cleavage, for AACACUGCCAAUGCAGGUCCCAAGCCCGGAUAAAAGUGGCGGGGGCGG [C15A A40C]
[out] 0.136

[in] Would you mind telling me what self-cleavage value was observed for AACACUGCCAAUUCCGGUCCCAAGUCCGGAUAAAAGUGGAGGGGGCGG [G13U C25U] ?
[out] 0.129

[in] Please report the recorded self-cleavage for AACACUGCCAAUGCCGCUCCCAAGCCCGGAUAAAAGAGGAGGGGGCGG [G17C U37A] .
[out] 0.0865

[in] What does the record list as self-cleavage for AACACUGCCAAUGCCGGUCCCAAGCCCGGAUAAGAGUGGAGGGGGGGG [A34G C46G] ?
[out] 0.815

[in] Query: self-cleavage; subject: AACACUGCCAAUGCCGGUACCAAUCCCGGAUAAAAGUGGAGGGGGCGG [C19A G24U]
[out] 0.0798

[in] So what does the record say about self-cleavage for AACACUGCCAAUGCCGGUCCCAAGCCCGGGUAAGAGUGGAGGGGGCGG [A30G A34G] ?
[out] 0.761

[in] Looking for the measured self-cleavage of AACACUGUCAAUGCCGGUCCCAAGCCCGGAUAAAUGUGGAGGGGGCGG [C8U A35U] , can you help?
[out] 0.756

[in] Returns the measured self-cleavage for the input variant. Input: AACACUGCCAAUGCCGGUCCCAAGCCCGGAUAAACGUGGACGGGGCGG [A35C G41C]
[out] 0.245

[in] Form field: reported self-cleavage of ACCACUGCCAAUGCCGGUCCCAAGCCCGGAUAAAAGUGGAGGGGGCGC [A2C G48C]
[out] 0.0956

[in] If you can, please state the reported self-cleavage value of AACACUGCCAAUGCCGGUCCCACGCCCGGAUAAAAGUAGAGGGGGCGG [A23C G38A] .
[out] 0.131

[in] Requested read-out: self-cleavage. Entry: AACACUGCCUAUGCCGGUCCCAAGCCCGGAUAAAAGUGGAGGGGGCGG [A10U]
[out] 0.982

[in] Find the recorded self-cleavage belonging to AACACUGCCAAUGCCGGUCCCCAGCCCGGGUAAAAGUGGAGGGGGCGG [A22C A30G] and report it.
[out] 1.16

[in] Which value of self-cleavage has been reported for AACUCUGCCAAUGCCGGUCCCAAACCCGGAUAAAAGUGGAGGGGGCGG [A4U G24A] in the records?
[out] 0.0658

[in] I have this variant here, AACACUGCCAAAGCCGGUCCCAAGCACGGAUAAAAGUGGAGGGGGCGG [U12A C26A] , and I need its recorded self-cleavage.
[out] 0.763

[in] Which value of self-cleavage has been reported for AACACUGCCAAUGCCGGUCCCAAGCCCGGAGAAAAGUGGAGGCGGCGG [U31G G43C] in the records?
[out] 0.18

[in] I have this variant here, AACACUGCAAAUGCCGGUCCCAAGCCCGGAUACAAGUGGAGGGGGCGG [C9A A33C] , and I need its recorded self-cleavage.
[out] 0.603

[in] Consider the variant shown here: AACACUGCCAAUGCCGGUCCGAAGCCCGGAUAAAAGUGGAGGCGGCGG [C21G G43C] What is its recorded self-cleavage?
[out] 0.0506

[in] Recorded self-cleavage for AACACUGCCAAUGCCGGUCCCAUGCCCGGAUAGAAGUGGAGGGGGCGG [A23U A33G] , please?
[out] 0.18

[in] Any idea what self-cleavage was measured for AACACUGCCAAUGCCGGUCCCAAGCCGGGAUAAAAGUGGAGGGGGCGG [C27G] ?
[out] 0.0872

[in] Any idea what self-cleavage was measured for AACACUGACAAUGCCGGUCCCAAGCCCGGUUAAAAGUGGAGGGGGCGG [C8A A30U] ?
[out] 0.284

[in] I am curious: what self-cleavage value has been reported for AACACUGCCAAUGCCGGUCCCAAGCCCGGAUAAAAGUGAGGGGGGCGG [G39A A40G] ?
[out] 0.145

[in] Find the recorded self-cleavage belonging to AACACUGCCAAUGCCGGUCGCAAGCCCGGAUAAAAGUGGAAGGGGCGG [C20G G41A] and report it.
[out] 0.0636

[in] For AACACUGCCAAUGCCGGUCCCAAGCCCGUAUAAAAGUGGAGGGUGCGG [G29U G44U] , what is its reported self-cleavage?
[out] 0.837

[in] Entry AACACUGCCAAUGCUGGUCCCAAGCCCGGAUAAAAGUGGCGGGGGCGG [C15U A40C] : reported self-cleavage = ?
[out] 0.148

[in] Returns the measured self-cleavage for the input variant. Input: AACACUGCCAAUGCCGGUCCCAUGCCCGGAUAAAAGUGGAGGGGCCGG [A23U G45C]
[out] 0.141

[in] Given UACACUGCCAAUGCCGGUCCCAUGCCCGGAUAAAAGUGGAGGGGGCGG [A1U A23U] , state its recorded self-cleavage.
[out] 0.0522

[in] Name the recorded self-cleavage for AACACUGCCCAUGCCGGUUCCAAGCCCGGAUAAAAGUGGAGGGGGCGG [A10C C19U] .
[out] 0.802

[in] Name the recorded self-cleavage for AACACUGCCAAUGCCGGUCCCGAGCCCGGGUAAAAGUGGAGGGGGCGG [A22G A30G] .
[out] 0.394

[in] Dear colleague, I am looking for the recorded self-cleavage of the following variant: AACACUGACAAGGCCGGUCCCAAGCCCGGAUAAAAGUGGAGGGGGCGG [C8A U12G]
[out] 0.213

[in] Which measured self-cleavage value corresponds to AACACUGCCAAUGCCGCUCCCAAGCCCGGAUAAAAGUGGAGGGGGCGU [G17C G48U] ?
[out] 0.163

[in] What value of measured self-cleavage is listed for AAUCCUGCCAAUGCCGGUCCCAAGCCCGGAUAAAAGUGGAGGGGGCGG [C3U A4C] ?
[out] 0.106

[in] So what does the record say about self-cleavage for AACACUGCCAAUGCCGGUCCCAAGCCCGGAAAAGAGUGGAGGGGGCGG [U31A A34G] ?
[out] 0.853

[in] So what does the record say about self-cleavage for AACACUGCCAAUGCAGGUUCCAAGCCCGGAUAAAAGUGGAGGGGGCGG [C15A C19U] ?
[out] 0.566

[in] What does the data say about its self-cleavage? Entry: AACACUGCCAAUGCCGGACCCAAGCCCGGAUAAGAGUGGAGGGGGCGG [U18A A34G]
[out] 0.171

[in] self-cleavage for AACACUGCCAAUGCCGGUCCCAAGCCCGGAUAAAACUGGAGAGGGCGG [G36C G42A] ?
[out] 0.134

[in] Name the reported self-cleavage value associated with the variant AACACUGCCAAUGCCGGUCCCAAGCCCGGAGAAAAGUGGAGGGGGCGU [U31G G48U]
[out] 0.938

[in] So what does the record say about self-cleavage for AACACUGGCAAUGUCGGUCCCAAGCCCGGAUAAAAGUGGAGGGGGCGG [C8G C14U] ?
[out] 0.625

[in] Find the recorded self-cleavage belonging to AACACAGCCAAUGCCGGUCCCAAGCCCGGAGAAAAGUGGAGGGGGCGG [U6A U31G] and report it.
[out] 1.01

[in] What value of measured self-cleavage is listed for AGCACUGCCAUUGCCGGUCCCAAGCCCGGAUAAAAGUGGAGGGGGCGG [A2G A11U] ?
[out] 0.583

[in] Sample AACACUGUCAAUGCCGGUCCCAAGCCCUGAUAAAAGUGGAGGGGGCGG [C8U G28U] — what was its self-cleavage?
[out] 0.467

[in] What value of measured self-cleavage is listed for AACACUGCCAAUGCCGGUCACGAGCCCGGAUAAAAGUGGAGGGGGCGG [C20A A22G] ?
[out] 0.0601

[in] Name the reported self-cleavage value associated with the variant AACACUGCCAAUGCCCGUCCCAAGCCGGGAUAAAAGUGGAGGGGGCGG [G16C C27G]
[out] 0.608
